Target: PD-L1 protein on the surface of MC38-hPDL1 tumor cells (Homo sapiens)
Construct: expressed in transfected cells; host or cells: MC38-hPDL1 (mouse colon cancer cells)
Sequence (Q9NZQ7 19-290): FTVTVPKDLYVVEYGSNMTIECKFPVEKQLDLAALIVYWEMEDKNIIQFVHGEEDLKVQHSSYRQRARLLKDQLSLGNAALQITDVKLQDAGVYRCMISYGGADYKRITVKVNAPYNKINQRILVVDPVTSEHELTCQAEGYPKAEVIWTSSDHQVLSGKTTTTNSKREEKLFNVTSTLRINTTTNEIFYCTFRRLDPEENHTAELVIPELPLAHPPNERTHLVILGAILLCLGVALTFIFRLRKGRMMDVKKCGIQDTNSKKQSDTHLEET
Assay: Induction of endocytosis of PD-L1 on the surface of tumor cells (flow cytometry)
Format: cell-based
Conditions: MC38-hPDL1 cells, 16 hours incubation; read-out: MC38 maximum endocytosis rate
QUANTITY_MEASURED: Emax (%)

| STRUCTURE_SMILES_STRING | QUANTITY_MEASURED | DISPLAY_UNIT | REPORTED |
| --- | --- | --- | --- |
| COc1cc(NCc2cnc(C(=O)Nc3cccc(-c4cccc(NC(=O)c5nc6c(n5C)CCNC6)c4Cl)c3Cl)cc2OC)ccn1 | Emax | % | 86 |
| COc1nc(-c2cccc(-c3cccc(NC(=O)c4nc5c(n4C)CCN(C)C5)c3Cl)c2Cl)ncc1CN1CC(CNC(C)=O)C1 | Emax | % | 93 |
| COc1nc(-c2cccc(-c3cccc(NC(=O)c4nc5c(n4C)CCN(C)C5)c3Cl)c2Cl)ccc1CN1CC2(C1)CN(S(C)(=O)=O)C2 | Emax | % | 97 |
| COc1nc(-c2cccc(-c3cccc(NC(=O)c4nc5c(n4C)CCN(C)C5)c3Cl)c2Cl)ncc1CN1CC(NC(C)=O)C1 | Emax | % | 90 |
| COc1nc(-c2cccc(-c3cccc(NC(=O)c4nc5c(n4C)CCN(C)C5)c3Cl)c2Cl)ccc1CN1CC2(C1)CN(C(C)=O)C2 | Emax | % | 97 |
